TARGET_SYSTEM: CYP2D6 (Homo sapiens, UniProt P10635)
Sequence (P10635 whole entry): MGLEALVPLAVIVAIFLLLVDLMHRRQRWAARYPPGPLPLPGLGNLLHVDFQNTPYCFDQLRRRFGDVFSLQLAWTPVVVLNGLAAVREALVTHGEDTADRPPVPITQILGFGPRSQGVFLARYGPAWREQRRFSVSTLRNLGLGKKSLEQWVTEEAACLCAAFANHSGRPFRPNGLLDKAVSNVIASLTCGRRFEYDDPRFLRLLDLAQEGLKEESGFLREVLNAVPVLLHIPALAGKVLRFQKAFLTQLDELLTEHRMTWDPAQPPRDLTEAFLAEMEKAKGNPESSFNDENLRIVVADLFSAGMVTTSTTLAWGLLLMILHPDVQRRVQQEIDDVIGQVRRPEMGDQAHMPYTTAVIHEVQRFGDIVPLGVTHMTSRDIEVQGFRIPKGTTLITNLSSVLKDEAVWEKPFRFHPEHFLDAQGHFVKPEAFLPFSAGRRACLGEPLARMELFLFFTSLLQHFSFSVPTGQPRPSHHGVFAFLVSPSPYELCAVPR
EXPERIMENTAL_PROTOCOL: in vitro
TEST_CONTEXT: human, microsomes, % Inhibition (duplicate) CYP2D6
READOUT_LABEL: inhibition at 100 µM

In: For the compound `Nn1nnc2ccccc21` , report inhibition at 100 µM.
Out: 40 to 80%

* * *

System: canine neutrophils
EXPERIMENTAL_PROTOCOL: Formation of 20-HETE by canine neutrophils
Format: cell-based
TEST_CONTEXT: Canis lupus familiaris, Neutrophil, read-out: IC50, formation of 20-HETE by canine neutrophils; 2×10^7 cells in dog CSF, 2 hours, n=4
READOUT_LABEL: IC50 (nM)
Entry rule: numbers only, all in nM.

In: // fetch IC50; item: `CCCCc1ccc(N=CNO)c(C)c1` ; system: canine neutrophils
Out: 10.2

* * *

TARGET_SYSTEM: CYP2C19 (Homo sapiens)
Construct: The enzyme/substrate contained buffer, human liver microsomes and the following substrates; tissue Nippon Nosanko; host or cells: pooled human liver microsomes (15 donors)
Sequence (P33261 whole entry): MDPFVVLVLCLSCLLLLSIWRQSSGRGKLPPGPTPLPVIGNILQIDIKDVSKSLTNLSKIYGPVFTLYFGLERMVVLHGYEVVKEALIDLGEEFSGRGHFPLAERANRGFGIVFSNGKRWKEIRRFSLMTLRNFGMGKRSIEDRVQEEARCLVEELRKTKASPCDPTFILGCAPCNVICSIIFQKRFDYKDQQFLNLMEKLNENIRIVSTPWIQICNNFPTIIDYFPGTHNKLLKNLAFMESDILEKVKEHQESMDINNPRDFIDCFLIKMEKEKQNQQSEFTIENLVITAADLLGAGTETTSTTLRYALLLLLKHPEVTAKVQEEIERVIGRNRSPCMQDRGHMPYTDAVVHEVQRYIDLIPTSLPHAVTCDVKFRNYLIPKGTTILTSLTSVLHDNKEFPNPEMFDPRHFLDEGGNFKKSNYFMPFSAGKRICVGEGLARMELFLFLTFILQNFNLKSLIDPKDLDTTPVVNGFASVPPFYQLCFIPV
EXPERIMENTAL_PROTOCOL: CYP2C19 activity in human liver microsomes
Type: in vitro ADME
TEST_CONTEXT: human, human liver microsomes, probe 14C-(S)-mephenyloin (4′-hydroxylation), inhibitor 10 μM; read-out: % Inhibition (duplicate) CYP2C19
READOUT_LABEL: inhibition at 10 µM (%)
Entry rule: numbers only, all in %.

In: For the molecule `C#CCCCCCCCCCCCCCCCC(=O)O` , report inhibition at 10 µM.
Out: 10

* * *

TARGET_SYSTEM: CYP2C9 (Homo sapiens, UniProt P11712)
Sequence (P11712 whole entry): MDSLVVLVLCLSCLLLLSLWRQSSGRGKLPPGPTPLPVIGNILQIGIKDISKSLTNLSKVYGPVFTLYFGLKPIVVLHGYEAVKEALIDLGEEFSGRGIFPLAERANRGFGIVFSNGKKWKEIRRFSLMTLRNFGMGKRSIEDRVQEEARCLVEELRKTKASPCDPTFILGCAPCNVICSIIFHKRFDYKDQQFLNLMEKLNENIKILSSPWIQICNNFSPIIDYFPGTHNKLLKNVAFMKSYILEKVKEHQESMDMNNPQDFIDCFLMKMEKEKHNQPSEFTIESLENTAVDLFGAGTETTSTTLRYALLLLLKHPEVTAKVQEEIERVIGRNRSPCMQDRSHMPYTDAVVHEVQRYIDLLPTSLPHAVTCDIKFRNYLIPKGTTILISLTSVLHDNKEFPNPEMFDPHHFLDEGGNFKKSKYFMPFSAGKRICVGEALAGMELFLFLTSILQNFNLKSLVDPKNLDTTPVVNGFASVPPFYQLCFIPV
EXPERIMENTAL_PROTOCOL: in vitro
TEST_CONTEXT: human, microsomes, % Inhibition (duplicate) CYP2C9
READOUT_LABEL: inhibition at 10 µM

In: For the compound C#CCCCCCCCCCCCCCCCC(=O)O [17-ODYA, 17-Octadecynoic acid] , report inhibition at 10 µM.
Out: 20 to 30%

* * *

TARGET_SYSTEM: UniProt P10635
EXPERIMENTAL_PROTOCOL: in vitro
TEST_CONTEXT: human, microsomes, % Inhibition (duplicate) CYP2D6
READOUT_LABEL: inhibition at 10 µM
Don't forget the unit after the value.

In: // fetch inhibition at 10 µM; item: C#CCCCCCCCCCCCCCCCC(=O)O [17-ODYA, 17-Octadecynoic acid] ; system: UniProt P10635
Out: -3%

* * *

EXPERIMENTAL_PROTOCOL: HET0016 levels in plasma and brain
Type: in vivo
TEST_CONTEXT: rat, plasma, iv; one hour after i.v. 10 mg/kg body weight
READOUT_LABEL: concentration at 1 h (nM)
Entry rule: numbers only, all in nM.

In: For the compound `CCCCc1ccc(N=CNO)c(C)c1` , report concentration at 1 h.
Out: 2800

* * *

TARGET_SYSTEM: 20-HETE synthesizing enzyme
EXPERIMENTAL_PROTOCOL: 20-HETE formation in rat renal microsomes ([3H]-AA, Example 3)
TEST_CONTEXT: read-out: IC50, formation of both EETs and 20-HETE (molar); SHR rat renal microsomes; nonselective inhibitor
Protocol: All procedure was carried out at 4° C. Renal cortex was pooled from twenty male SHR rats (6 weeks of age). They were homogenized extensively in lysis buffer (20 mM HEPES, pH 7.4, 1 mM EDTA, 100 μM p-(amidinophenyl)metanesulfonyl fluoride and 250 mM sucrose), and centrifuged at 16,000×g for 10 min. Supernatant was further centrifuged at 16,000×g for 30 min. Soluble fraction was collected and centrifuged at 200,000×g for 30 min. The resulting pellet was suspended in 50 mM MOPS buffer. […]
READOUT_LABEL: IC50

In: For the molecule `Nn1nnc2ccccc21` , report IC50.
Out: ~150 µM

* * *

EXPERIMENTAL_PROTOCOL: HET0016 levels in plasma and brain
Type: in vivo
TEST_CONTEXT: brain, iv; rat, 1 hr after i.v. 10 mg/kg, n=3
READOUT_LABEL: concentration at 1 h (ng/g)
Entry rule: numbers only, all in ng/g.

In: For the compound CCCCc1ccc(N=CNO)c(C)c1 [HET0016] , report concentration at 1 h.
Out: 1490

* * *

EXPERIMENTAL_PROTOCOL: HET0016 levels in plasma and brain
Format: in vivo
TEST_CONTEXT: brain, iv; rat, 1 hr after i.v. 10 mg/kg
READOUT_LABEL: concentration at 1 h
Don't forget the unit after the value.

In: For the compound CCCCc1ccc(N=CNO)c(C)c1 [HET0016] , report concentration at 1 h.
Out: 7.2 µM

Source: patent US7307101B2
